// molecules with reported Ki on 5-hydroxytryptamine receptor 5A (Homo sapiens), multi-publication

{"moleculeSmiles": "N#Cc1cc(F)cc(F)c1-c1cccc2ccc(C(=O)N=C(N)N)cc12", "Ki": "0.3 to 3 nM"}
{"moleculeSmiles": "COc1cccc(OC)c1CNC(=N)Nc1nc(CNC(=O)OC(C)(C)C)cs1", "Ki": "< 50 nM"}
{"moleculeSmiles": "Cc1cc(C(=O)N=C(N)N)cc2c1c1c(F)cccc1n2C1CCOCC1", "Ki": "≤ 50 nM"}
{"moleculeSmiles": "Cc1ccc(-c2ncc(F)cc2F)c2c1CCN(C(=O)N=C(N)N)C2", "Ki": "3.9 nM"}
{"moleculeSmiles": "CCc1csc(NC(=N)NCc2c(OC)cccc2OC)n1", "Ki": "< 50 nM"}
{"moleculeSmiles": "COc1cccc(OC)c1CNC(=N)Nc1nc(C(C)(C)C)cs1", "Ki": "< 50 nM"}
{"moleculeSmiles": "NC(N)=NC(=O)c1ccc2c(c1)C(c1cncc(F)c1)=CCC2", "Ki": "30 to 300 nM"}
{"moleculeSmiles": "COc1cccc(OC)c1CNC(=N)Nc1nc(-c2ccc3ccccc3c2)cs1", "Ki": "< 50 nM"}
{"moleculeSmiles": "NC(N)=NC(=O)c1ccc2cccc(-c3cncc(Cl)c3)c2c1", "Ki": "3 to 30 nM"}
{"moleculeSmiles": "COc1ccc(-c2cccc3ccc(C(=O)N=C(N)N)cc23)c(OC)c1", "Ki": "0.3 to 3 nM"}
{"moleculeSmiles": "NC(N)=NC(=O)c1ccc2c(c1)C(c1cccc(F)c1)=CCC2", "Ki": "3 to 30 nM"}
{"moleculeSmiles": "COc1cccc(OC)c1CNC(=N)Nc1nc(-c2ccc(F)cc2OCCN2CCOCC2)cs1", "Ki": "< 50 nM"}
{"moleculeSmiles": "COc1ccccc1CN1Cc2ccc(Cl)cc2N=C1N", "Ki": "< 300 nM"}
{"moleculeSmiles": "COc1cccc(F)c1CNC(=N)Nc1cc(C(C)(C)C)[nH]n1", "Ki": "< 50 nM"}
{"moleculeSmiles": "NC(N)=NC(=O)c1ccc2c(c1)C(c1cnccn1)=CCC2", "Ki": "30 to 300 nM"}
{"moleculeSmiles": "COc1ccc(-c2cccc3ccc(C(=O)N=C(N)N)cc23)cc1", "Ki": "0.3 to 3 nM"}
{"moleculeSmiles": "COc1ccccc1Cn1cc(C23CC4CC(CC(C4)C2)C3)nc1N", "Ki": "< 600 nM"}
{"moleculeSmiles": "COc1ccccc1CNC(=N)Nc1nc(-c2ccc(Cl)cc2)cs1", "Ki": "> 500 nM"}
{"moleculeSmiles": "COc1ccccc1Cn1cc(-c2ccc(C(C)C)cc2)nc1N", "Ki": "< 600 nM"}
